Where do these numbers come from? They come from paper PMC3579217.

- subject-of-test: myrMA (myristoylated M-PMV matrix protein) (Mason-Pfizer monkey virus)
- Sequence (P07567 2-118): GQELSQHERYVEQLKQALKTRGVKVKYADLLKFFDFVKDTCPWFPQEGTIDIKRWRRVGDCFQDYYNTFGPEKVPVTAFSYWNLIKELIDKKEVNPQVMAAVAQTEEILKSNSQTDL
observation-type: pKd
Remember the convention: pKd equals -log10 of concentration in molar.

// recorded pKd for CCCCCCCC(=O)OC[C@H](COP(=O)(O)O[C@@H]1[C@H](O)[C@H](O)[C@@H](OP(=O)(O)O)[C@H](OP(=O)(O)O)[C@H]1O)OC(=O)CCCCCCC [C8-PI(4,5)P2] : 4.03
